kon overview
tested.system: T1, Human CD137 ECD (human)
T1 construct: also called human CD137 extracellular domain; recombinant human CD137
T1 sequence (chain, as listed by the source limits assumed): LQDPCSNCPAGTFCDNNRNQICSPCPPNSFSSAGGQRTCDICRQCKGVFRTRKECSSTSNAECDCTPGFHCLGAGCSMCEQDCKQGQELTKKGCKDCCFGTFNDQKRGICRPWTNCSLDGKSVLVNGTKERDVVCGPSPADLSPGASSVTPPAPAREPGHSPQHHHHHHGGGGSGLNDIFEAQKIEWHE
experimental.protocol: SPR Biacore T200, 37 C, Ab captured on anti-human Fc, antigen as analyte;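 also: recombinant human CD137 flowed over antibodies held by amine-coupled anti-human Fc on a CM4 chip, run in ACES pH 7.4 buffer with 150 mM NaCl and 0.05% Tween 20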
Field format: number, assumed M⁻¹ s⁻¹, no unit text.

Below are worked cases with known answers.
INSERT INTO measurements (binder, unit_abbreviation, quantitative_readout) VALUES
  ('H2594L0581 (antibody, V domains shown, Dual-Ig, IgG; also called H2594L581; dBBDu183H2594/dBBDu072L0581) VH: QVQLVESGGGLVQPGRSLRLSCAASGFKFSNVWFHWVRQAPGKGLEWVAQIKDYYNAYAGYYHPSVKGRFTISRDDSKNSIYLQMNSLKTEDTAVYYCHYVHYAAASQLLPAEGVDAWGQGTTVTVSS VL: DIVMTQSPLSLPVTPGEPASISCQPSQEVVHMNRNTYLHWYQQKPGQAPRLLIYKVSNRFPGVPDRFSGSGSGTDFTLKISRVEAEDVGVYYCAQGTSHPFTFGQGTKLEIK', 'M⁻¹ s⁻¹', 20900),
  ('H1649L0581 (antibody, V domains shown, Dual-Ig, IgG; also called dBBDu183H1649/dBBDu072L0581) VH: QVQLVESGGGLVQPGRSLRLSCAASGFVFSNVWFHWVRQAPGKGLEWVAQIKDKYNAYADYYAPSVKERFTISRDDSKNSIYLQMNSLKTEDTAVYYCHYVHYASASTLLPAEGVDAWGQGTTVTVSS VL: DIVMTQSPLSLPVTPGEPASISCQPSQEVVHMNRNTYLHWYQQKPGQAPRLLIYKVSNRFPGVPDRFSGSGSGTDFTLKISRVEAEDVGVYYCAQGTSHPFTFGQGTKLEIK', 'M⁻¹ s⁻¹', 12900);

Pending binder:
Sure, the documented kon for H1673L0581 (antibody, V domains shown, Dual-Ig, IgG; also called dBBDu183H1673/dBBDu072L0581) VH: QVQLVESGGGLVQPGRSLRLSCAASGFVFSNVWFHWVRQAPGKGLEWVAQIKDKWNAYADYYAPSVKERFTISRDDSKNSIYLQMNSLKTEDTAVYYCHYIHYASASTLLPAEGIDAWGQGTTVTVSS VL: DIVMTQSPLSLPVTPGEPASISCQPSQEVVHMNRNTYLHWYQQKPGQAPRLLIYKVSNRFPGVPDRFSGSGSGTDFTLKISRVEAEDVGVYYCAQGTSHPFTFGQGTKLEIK is 11900
